Parameter 'readout' = IC50; parameter 'system' = UniProt:O60674.
Sequence (O60674 whole entry): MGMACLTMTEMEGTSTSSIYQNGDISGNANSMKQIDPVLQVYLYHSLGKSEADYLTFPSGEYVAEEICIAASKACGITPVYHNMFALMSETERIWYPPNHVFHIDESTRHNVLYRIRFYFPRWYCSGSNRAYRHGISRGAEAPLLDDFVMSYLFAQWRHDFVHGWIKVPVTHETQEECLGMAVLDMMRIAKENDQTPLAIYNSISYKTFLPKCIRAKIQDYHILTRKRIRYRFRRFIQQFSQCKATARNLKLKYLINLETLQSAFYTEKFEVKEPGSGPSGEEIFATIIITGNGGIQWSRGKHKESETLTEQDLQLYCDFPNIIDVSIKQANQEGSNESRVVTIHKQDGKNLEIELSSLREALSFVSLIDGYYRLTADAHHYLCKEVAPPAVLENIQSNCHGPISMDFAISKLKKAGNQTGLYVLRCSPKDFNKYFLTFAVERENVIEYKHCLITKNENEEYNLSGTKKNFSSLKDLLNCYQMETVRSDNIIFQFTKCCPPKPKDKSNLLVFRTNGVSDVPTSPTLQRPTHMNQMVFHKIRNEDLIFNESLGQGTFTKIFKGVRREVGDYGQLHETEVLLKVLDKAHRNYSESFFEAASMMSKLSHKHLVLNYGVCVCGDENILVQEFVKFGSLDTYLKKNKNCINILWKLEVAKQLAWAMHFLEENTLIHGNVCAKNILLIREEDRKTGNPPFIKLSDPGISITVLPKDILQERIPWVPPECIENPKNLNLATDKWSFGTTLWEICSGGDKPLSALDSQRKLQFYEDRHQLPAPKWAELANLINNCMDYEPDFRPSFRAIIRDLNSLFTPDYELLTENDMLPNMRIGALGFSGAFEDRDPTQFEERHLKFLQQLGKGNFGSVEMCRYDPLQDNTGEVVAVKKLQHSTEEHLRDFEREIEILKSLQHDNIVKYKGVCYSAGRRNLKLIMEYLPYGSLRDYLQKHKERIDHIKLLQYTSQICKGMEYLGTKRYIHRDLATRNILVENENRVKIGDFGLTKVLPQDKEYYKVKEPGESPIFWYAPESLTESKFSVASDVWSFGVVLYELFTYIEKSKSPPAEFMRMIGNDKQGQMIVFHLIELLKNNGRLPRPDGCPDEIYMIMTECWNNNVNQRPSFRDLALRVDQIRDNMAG

Past entries and their recorded results:
| compound | tgt | observed result |
| --- | --- | --- |
| N#CCC(=O)N1CCC[C@@H](Nc2c(-c3cccc(N)n3)cnc3[nH]ccc23)C1 [Example 44] | UniProt:O60674 | 0.01 to 0.1 µM |
| N#CCC(=O)N1CCC[C@@H](Nc2c(-c3nc(C(N)=O)co3)cnc3[nH]ccc23)C1 [Example 14] | UniProt:O60674 | 0.01 to 0.1 µM |
| N#CCC(=O)N1CCC[C@@H](Nc2c(-c3ccccn3)cnc3[nH]ccc23)C1 [Example 21] | UniProt:O60674 | 0.01 to 0.1 µM |
| C[C@@H]1C[C@H](Nc2c(-c3ccncn3)cnc3[nH]ccc23)CN(C(=O)CC#N)C1 [Example 57] | UniProt:O60674 | 0.1 to 1 µM |
| N#CCC(=O)N1CCC[C@@H](Nc2c(-c3cscn3)cnc3[nH]ccc23)C1 [Example 1] | UniProt:O60674 | 0.01 to 0.1 µM |
| CNC(=O)c1coc(-c2cnc3[nH]ccc3c2N[C@@H]2CC[C@H](C)N(C(=O)CC#N)C2)n1 [Example 30] | UniProt:O60674 | ≤ 0.01 µM |
| CN(C(=O)CC#N)C1CCN(c2nccc(-c3cnc4[nH]ccc4c3N[C@@H]3CCCN(C(=O)CC#N)C3)n2)C1 (some centres unmarked) [Example 50] | UniProt:O60674 | 0.01 to 0.1 µM |
| CN(C)S(=O)(=O)Nc1ccnc(-c2cnc3[nH]ccc3c2N[C@@H]2CCCN(C(=O)CC#N)C2)c1 [Example 54] | UniProt:O60674 | 0.01 to 0.1 µM |
| C[C@H]1C[C@@H](Nc2c(-c3nccs3)cnc3[nH]ccc23)CN(CC2CC2(F)F)C1 (some centres unmarked) [Example 67] | UniProt:O60674 | 0.01 to 0.1 µM |
| O[C@H]1CC[C@@H](Nc2c(-c3ncco3)cnc3[nH]ccc23)C1 [Example 13] | UniProt:O60674 | 0.01 to 0.1 µM |

Request - read-out IC50 | tested on UniProt:O60674 | compound N#CCC(=O)N1CCC[C@@H](Nc2c(-c3ccn(CCO)n3)cnc3[nH]ccc23)C1 [Example 62]
≤ 0.01 µM

Request - read-out IC50 | tested on UniProt:O60674 | compound Cc1ncc(-c2cnc3[nH]ccc3c2N[C@@H]2CCCN(C(=O)CC#N)C2)s1 [Example 3]
0.1 to 1 µM

Request - read-out IC50 | tested on UniProt:O60674 | compound N#CCC(=O)N1CCC[C@@H](Nc2c(-c3nnco3)cnc3[nH]ccc23)C1 [Example 7]
0.01 to 0.1 µM

Request - read-out IC50 | tested on UniProt:O60674 | compound N#CCC(=O)N1CCC[C@@H](Nc2c(-c3ccnc(N)n3)cnc3[nH]ccc23)C1 [Example 51]
≤ 0.01 µM

Request - read-out IC50 | tested on UniProt:O60674 | compound CCOC(=O)c1cnc(-c2cnc3[nH]ccc3c2N[C@@H]2CCCN(C(=O)CC#N)C2)s1 [Example 42]
≤ 0.01 µM

Request - read-out IC50 | tested on UniProt:O60674 | compound CS(=O)(=O)c1cnc(-c2cnc3[nH]ccc3c2N[C@@H]2CCCN(C(=O)CC#N)C2)o1 [Example 48]
0.01 to 0.1 µM

Request - read-out IC50 | tested on UniProt:O60674 | compound Cc1ccc(-c2cnc3[nH]ccc3c2N[C@@H]2CCCN(C(=O)CC#N)C2)nc1 [Example 22]
0.01 to 0.1 µM

Request - read-out IC50 | tested on UniProt:O60674 | compound CNC(=O)c1coc(-c2cnc3[nH]ccc3c2N[C@@H]2CCCN(C(=O)CC#N)C2)n1 [Example 33]
0.01 to 0.1 µM

Request - read-out IC50 | tested on UniProt:O60674 | compound NC(=O)c1coc(-c2cnc3[nH]ccc3c2N[C@H]2CC[C@@H](O)C2)n1 [Example 29]
0.01 to 0.1 µM

Request - read-out IC50 | tested on UniProt:O60674 | compound N#CCC(=O)N1CCC[C@@H](Nc2c(-c3ccn[nH]3)cnc3[nH]ccc23)C1 [Example 18]
0.01 to 0.1 µM
